Provenance of the data: PubChem BioAssay

test: P. aeruginosa biofilm formation inhibitors, primary screen, PAO1 strain, BacTiter-Glo luminescence, LB-PBS (AID 1144)
test_parameters: 12 h, higher = more signal
Field: z-score. Provide a value for each of the molecules that follow.
Numbers only.

# annotated cases, reported z-score shown
molecule	z-score
COC(=O)[C@@]1(Cc2ccc(OC)cc2)[C@H]2c3cc(C(=O)N4CCCC4)n(Cc4ccccc4)c3C[C@H]2CN1C(=O)c1ccccc1	0.888
C=CCNC(=O)[C@H]1[C@@H]2C(=O)O[C@@H](c3ccccc3)[C@@H](c3ccccc3)N2[C@@H](c2ccc(OCCO)cc2)[C@]12C(=O)N(C(=O)OCCOC)c1ccccc12	-0.478

Dear colleague, could you send me z-score for each of the items below? Thanks.
1. C=CCNC(=O)[C@H]1[C@@H]2C(=O)O[C@@H](c3ccccc3)[C@@H](c3ccccc3)N2[C@@H](c2ccc(O)cc2)[C@]12C(=O)N(C(=O)OCCOC)c1ccc(C#CCNC(N)=O)cc12
2. C=CCNC(=O)[C@@H]1[C@H]2C(=O)O[C@H](c3ccccc3)[C@H](c3ccccc3)N2[C@H](c2ccc(OCCO)cc2)[C@@]12C(=O)Nc1ccc(C#CCCO)cc12
3. CN(C)CCCNC(=O)[C@@]1(c2ccc([N+](=O)[O-])cc2)CC(=O)N(C2CCCCC2)[C@@H]1c1ccc(CO)cc1I
4. NCCCCCNC(=O)[C@@H]1C[C@@H]2C(=O)NCC(=O)N2[C@@H]1c1ccc(O)cc1
5. COC(=O)[C@@]1(Cc2ccccc2)[C@H]2c3cc(C(=O)N4CCCC4)n(Cc4cccc5ccccc45)c3C[C@H]2CN1C(=O)c1ccccc1
6. COc1ccc(C(=O)Nc2cccc(CN3C(=O)[C@]4(O[C@H](CCO)[C@@H]([Si](C)(C)c5ccc(OC)cc5)[C@@H]4C)c4ccccc43)c2)cc1
7. CC(C)C[C@@H]1NC(=O)[C@H]2C[C@@H](C(=O)NCCCCCCN(C)C)[C@@H](c3ccc(O)cc3)N2C1=O
8. O=C1OCC=C[C@H]2OC34C=CCN(c5ccc6ccccc6c5)C(=O)[C@H]3N(CCCCCCO)C(=O)[C@@H]4[C@@H]12 (stereo partly drawn)

Result:
0.283
-0.796
0.262
-0.735
0.786
-0.694
-0.041
3.31

Batch request: z-score for each of the following molecules.
1. O=C(NCc1ccccc1)[C@@]1(Cc2ccccc2)N=C(c2ccc(OCCCO)cc2)O[C@H]1c1ccccc1
2. COC(=O)C(CC#Cc1ccc2c(c1)[C@]1(C(=O)N2)[C@H](C(=O)O)[C@H]2C(=O)O[C@H](c3ccccc3)[C@H](c3ccccc3)N2[C@@H]1c1ccc(O)cc1)C(=O)OC
3. C[C@]1(C(=O)NC2CC2)c2ccccc2C(=O)N(Cc2cc(C(F)(F)F)cc(C(F)(F)F)c2)[C@H]1c1ccc(CO)cc1

Result:
-0.883
-0.208
0.501

----------
Tested on: PRMT1 (protein arginine N-methyltransferase 1)
test: PRMT1 binders on small-molecule microarrays, primary screen, biochemical, small-molecule microarray, 635 nm fluorescence (AID 1088);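 note: binding of Prmt1 protein to compounds spotted on small-molecule microarray slides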
test_parameters: small-molecule microarray binding, higher = more signal
So I've got a bunch of molecules here, and I need their composite z-score values.
Give bare numbers.

I need composite z-score for every entry listed below, if you could help.
1. CCOC(=O)[C@H]1CC=C2CC1C(=O)N1CCC[C@@H]1[C@@H]2O[Si](C)(C)C(C)(C)C (stereo not given in full)
2. C[N+](C)(C)CCCC[C@@H]1NC(=O)[C@@H]2C[C@H](C(=O)NCCCCCN)[C@H](c3cccc(OCCO)c3)N2C1=O
3. O=C1OCCC/C=C\[C@H]2OC34C=CCN(c5ccc6ccccc6c5)C(=O)[C@H]3N(CCCCCCO)C(=O)[C@@H]4C12 (stereo not given in full)
4. COc1ccc([Si](C)(C)[C@H]2[C@H](CCO)O[C@@]3(C(=O)N(C)c4c(Br)cc(C)cc43)[C@@H]2C)cc1
5. C=CCOC(=O)[C@@H]1[C@H]2C(=O)O[C@H](c3ccccc3)[C@H](c3ccccc3)N2[C@H](c2ccc(OCCOC(=O)[C@@H]3C[C@@H]4C(=O)N[C@@H](CCCC[N+](C)(C)C)C(=O)N4[C@@H]3c3cccc(OCCO)c3)cc2)[C@@]12C(=O)Nc1ccc(I)cc12
6. C[N+](C)(C)CCCCNC(=O)[C@H]1C[C@H]2C(=O)N[C@@H](Cc3ccccc3)C(=O)N2[C@H]1c1ccc(O)cc1
7. COC(=O)c1c(CC[C@@H](CO)NC(=O)N[C@@H](C)Cn2cc(C3(O)CCCCC3)nn2)oc(C(C)=O)c1C(=O)OC

Result:
[-0.295, 1.28, 0.0502, 1.49, 1.56, 0.684, 1.54]
